- EXPERIMENTAL_SYSTEM: T1, GST-NEMO(1-196) (UniProt Q9Y6K9 1-196)
- T1 construct: range 1-196; Expressed in E. coli from pGEX4T3-GST-NEMO(1-196) and purified on glutathione-Sepharose; Used with the GST tag in the HTRF assay (30 nM); also called Recombinant GST-NEMO; NF-κB essential modifier; not shown: glutathione S-transferase (GST) tag encoded by the pGEX4T3 vector
- T1 sequence (Q9Y6K9 1-196): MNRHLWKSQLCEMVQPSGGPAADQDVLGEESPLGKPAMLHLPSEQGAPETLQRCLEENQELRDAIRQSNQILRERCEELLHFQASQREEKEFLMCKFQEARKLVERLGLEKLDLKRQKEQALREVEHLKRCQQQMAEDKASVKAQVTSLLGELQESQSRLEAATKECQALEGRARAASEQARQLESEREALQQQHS
- EXPERIMENT_NOTES: HTRF competition, NEMO-IKK interaction (FIG. 6)
Square brackets hold non-standard residues; d marks the D form. Ends that are not written are not given here. 2Nal = N[C@@H](Cc1ccc2ccccc2c1)C(=O)O
PROPERTY: pIC50
Reminder that pIC50 means the negative base-10 logarithm of the concentration expressed in mol/L.

# pIC50 lookup, item RRRR[2Nal]FCALDWSWLQC (cysteine pairing not given here) [RRRRΦFCALDWSWLQC]
5.85

# pIC50 lookup, item RRRR[2Nal]FTALDWSWLQT [RRRRΦFTALDWSWLQT]
5.80
